Entries with reported MIC on Mycobacterium fortuitum

- Query smiles: "CO[C@H]1/C=C/O[C@@]2(C)Oc3c(C)c(O)c4c(O)c(c(/C=N/N5CCN(C)CC5)c(O)c4c3C2=O)NC(=O)/C(C)=C\\C=C\\[C@H](C)[C@H](O)[C@@H](C)[C@@H](O)[C@@H](C)[C@H](OC(C)=O)[C@@H]1C"
  Uom: "µg/mL"
  Cmp: "="
  MIC: 4
- Query smiles: "COc1c(N2C[C@@H]3CCCN[C@@H]3C2)c(F)cc2c(=O)c(C(=O)O)cn(C3CC3)c12"
  Uom: "µg/mL"
  Cmp: "<"
  MIC: 0.06
- Query smiles: "C=C(NC(=O)C(=C)NC(=O)c1csc(C2=N[C@@H]3c4csc(n4)[C@H]4NC(=O)c5csc(n5)[C@H]([C@](C)(O)[C@@H](C)O)NC(=O)[C@H]5CSC(=N5)/C(=C/C)NC(=O)[C@H]([C@@H](C)O)NC(=O)c5csc(n5)[C@]3(CC2)NC(=O)[C@H](C)NC(=O)C(=C)NC(=O)[C@H](C)NC(=O)[C@H]([C@@H](C)CC)N[C@@H]2C=Cc3c([C@H](C)O)cc(nc3[C@H]2O)C(=O)O[C@@H]4C)n1)C(N)=O"
  Uom: "µg/mL"
  Cmp: "="
  MIC: 2
- Query smiles: "NCC[C@H](O)C(=O)N[C@@H]1C[C@H](N)[C@@H](O[C@H]2O[C@H](CN)[C@@H](O)[C@H](O)[C@H]2O)[C@H](O)[C@H]1O[C@H]1O[C@H](CO)[C@@H](O)[C@H](N)[C@H]1O"
  Uom: "µg/mL"
  Cmp: "="
  MIC: 2
- Query smiles: "CC[C@H]1OC(=O)[C@H](C)[C@@H](O[C@H]2C[C@@](C)(OC)[C@@H](O)[C@H](C)O2)[C@H](C)[C@@H](O[C@@H]2O[C@H](C)C[C@H](N(C)C)[C@H]2O)[C@](C)(OC)C[C@@H](C)C(=O)[C@H](C)[C@@H](O)[C@]1(C)O"
  Uom: "µg/mL"
  Cmp: "="
  MIC: 32

---

# System: Mycobacterium kansasii
# Protocol: Minimum Bactericidal Concentration (MBC)
# Type: cell-based
# Assay context: M.kansasii
Listed here: items and their measured MBC.

- Compound: "CO[C@H]1/C=C/O[C@@]2(C)Oc3c(C)c(O)c4c(O)c(c(/C=N/N5CCN(C)CC5)c(O)c4c3C2=O)NC(=O)/C(C)=C\\C=C\\[C@H](C)[C@H](O)[C@@H](C)[C@@H](O)[C@@H](C)[C@H](OC(C)=O)[C@@H]1C [Rifampicin]"
  Uom: "µg/mL"
  MBC: 16
- Compound: "COc1c(N2C[C@@H]3CCCN[C@@H]3C2)c(F)cc2c(=O)c(C(=O)O)cn(C3CC3)c12 [Moxifloxacin]"
  Uom: "µg/mL"
  MBC: 8
- Compound: "C=C(NC(=O)C(=C)NC(=O)c1csc(C2=N[C@@H]3c4csc(n4)[C@H]4NC(=O)c5csc(n5)[C@H]([C@](C)(O)[C@@H](C)O)NC(=O)[C@H]5CSC(=N5)/C(=C/C)NC(=O)[C@H]([C@@H](C)O)NC(=O)c5csc(n5)[C@]3(CC2)NC(=O)[C@H](C)NC(=O)C(=C)NC(=O)[C@H](C)NC(=O)[C@H]([C@@H](C)CC)N[C@@H]2C=Cc3c([C@H](C)O)cc(nc3[C@H]2O)C(=O)O[C@@H]4C)n1)C(N)=O [Thiostrepton]"
  Uom: "µg/mL"
  MBC: 16
- Compound: "NCC[C@H](O)C(=O)N[C@@H]1C[C@H](N)[C@@H](O[C@H]2O[C@H](CN)[C@@H](O)[C@H](O)[C@H]2O)[C@H](O)[C@H]1O[C@H]1O[C@H](CO)[C@@H](O)[C@H](N)[C@H]1O [Amikacin]"
  Uom: "µg/mL"
  MBC: 16
- Compound: "CC[C@H]1OC(=O)[C@H](C)[C@@H](O[C@H]2C[C@@](C)(OC)[C@@H](O)[C@H](C)O2)[C@H](C)[C@@H](O[C@@H]2O[C@H](C)C[C@H](N(C)C)[C@H]2O)[C@](C)(OC)C[C@@H](C)C(=O)[C@H](C)[C@@H](O)[C@]1(C)O [Clarithromycin]"
  Uom: "µg/mL"
  MBC: 2

These measurements were taken from patent US20220081470A1.
